- Tgt: mouse ADAMTS7 (Mus musculus, UniProt Q68SA9)
- Construct: Full-length mouse Adamts7 1-1857 (Uniprot Q68SA9, WT or E373Q catalytic mutant); expressed in transfected cells; host or cells: Human Coronary Artery Smooth Muscle Cells (HCA-SMC, Lonza), adenovirus 50 MOI
- Sequence (Q68SA9 221-1657): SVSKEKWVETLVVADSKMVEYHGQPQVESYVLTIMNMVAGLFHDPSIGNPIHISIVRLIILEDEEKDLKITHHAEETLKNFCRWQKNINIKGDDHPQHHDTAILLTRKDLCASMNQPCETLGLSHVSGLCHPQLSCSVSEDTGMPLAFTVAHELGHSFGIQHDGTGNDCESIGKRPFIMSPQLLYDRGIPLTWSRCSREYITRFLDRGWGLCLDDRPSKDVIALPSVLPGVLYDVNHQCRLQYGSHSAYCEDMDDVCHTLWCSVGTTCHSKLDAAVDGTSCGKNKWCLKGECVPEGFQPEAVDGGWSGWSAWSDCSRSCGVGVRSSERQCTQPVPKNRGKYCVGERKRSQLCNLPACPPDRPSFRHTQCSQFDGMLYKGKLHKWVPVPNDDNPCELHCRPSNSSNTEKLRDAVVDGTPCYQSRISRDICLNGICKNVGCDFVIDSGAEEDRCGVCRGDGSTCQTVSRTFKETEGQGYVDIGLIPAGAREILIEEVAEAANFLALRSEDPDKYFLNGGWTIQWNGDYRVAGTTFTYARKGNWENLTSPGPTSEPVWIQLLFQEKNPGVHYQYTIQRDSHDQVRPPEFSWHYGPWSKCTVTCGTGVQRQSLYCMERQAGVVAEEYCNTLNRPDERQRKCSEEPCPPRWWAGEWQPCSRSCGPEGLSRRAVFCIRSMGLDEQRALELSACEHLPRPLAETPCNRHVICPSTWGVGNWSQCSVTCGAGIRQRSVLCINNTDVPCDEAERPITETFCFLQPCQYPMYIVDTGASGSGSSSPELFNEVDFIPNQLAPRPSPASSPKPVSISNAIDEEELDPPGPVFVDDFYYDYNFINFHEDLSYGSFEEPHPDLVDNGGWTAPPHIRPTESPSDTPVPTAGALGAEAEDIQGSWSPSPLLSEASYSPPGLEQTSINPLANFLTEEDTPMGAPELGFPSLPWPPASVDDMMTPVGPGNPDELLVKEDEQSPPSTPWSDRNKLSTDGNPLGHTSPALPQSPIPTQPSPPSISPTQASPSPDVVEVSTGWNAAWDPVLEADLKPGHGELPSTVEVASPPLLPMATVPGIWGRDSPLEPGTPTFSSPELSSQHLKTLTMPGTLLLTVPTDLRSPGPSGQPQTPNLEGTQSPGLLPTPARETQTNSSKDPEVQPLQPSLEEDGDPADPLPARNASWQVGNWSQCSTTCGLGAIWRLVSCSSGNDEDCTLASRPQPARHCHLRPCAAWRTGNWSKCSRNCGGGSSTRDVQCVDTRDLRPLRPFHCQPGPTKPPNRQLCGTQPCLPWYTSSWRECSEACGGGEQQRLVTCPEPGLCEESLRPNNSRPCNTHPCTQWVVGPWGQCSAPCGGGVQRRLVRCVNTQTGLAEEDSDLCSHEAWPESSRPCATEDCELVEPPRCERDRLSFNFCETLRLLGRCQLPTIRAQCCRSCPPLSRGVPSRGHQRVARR
- Procedure text: TMT10 TAILS N-terminomics, SMC1 experiment (Ad-mADAMTS7 WT vs EQ vs Luc, technical replicates, trypsin digest)
- Assay type: cell-based
- Measurement context: TAILS neo-N-terminal peptide abundance; log fold change, Ad-mADAMTS7 WT over Luc
Square brackets hold non-standard residues; d marks the D form. Ends that are not written are not given here.
Assay readout: logFC.mWT.over.Lux
Lab note: write the figure by itself, no unit.

Illustrative cases are given below, each with its answer.
NID2_374 (VGGPDLKGQVEPWDER; listed as Homo sapiens) | 4.80
NUCB1_389 (LQQAVLHMEQR; listed as Homo sapiens) | 2.25
IGFBP3_32 (AGLGPVVR; listed as Homo sapiens) | 4.06
FN1_36 (MVQPQSPVAVSQSKPGCYDNGKHYQINQQWER; listed as Homo sapiens) | 3.73
MAN2A1_51 (LQEKIDHLER; listed as Homo sapiens) | 2.04
ACTB_105 (LTEAPLNPKANR; listed as Homo sapiens) | 1.88

stdin: Quick one: logFC.mWT.over.Lux for LTBP2_1602 (EAGVHFR; listed as Homo sapiens) ?
stdout: 1.63

stdin: Quick one: logFC.mWT.over.Lux for IFI30_43 (YKTGNLYLR; listed as Homo sapiens) ?
stdout: 3.19

stdin: Quick one: logFC.mWT.over.Lux for ECM1_134 (FGDQSHPEPESWNAAQHCQQDR; listed as Homo sapiens) ?
stdout: 3.02

stdin: Quick one: logFC.mWT.over.Lux for LOX_124 (WFQAGYSTSR; listed as Homo sapiens) ?
stdout: 3.70

stdin: Quick one: logFC.mWT.over.Lux for PXDN_1393 (QKTITDLR; listed as Homo sapiens) ?
stdout: 4.88

stdin: Quick one: logFC.mWT.over.Lux for FN1_47 ([code q]SKPGCYD[code n]GKHYQINQQWER; not fully specified; listed as Homo sapiens) ?
stdout: 3.08

stdin: Quick one: logFC.mWT.over.Lux for LASP1_123 (HEEFEKSR; listed as Homo sapiens) ?
stdout: 0.87
